# experimental.system: α5-GABAA receptor (Homo sapiens (Human), UniProt P18507+P31644)
# Sequence (P31644 32-462): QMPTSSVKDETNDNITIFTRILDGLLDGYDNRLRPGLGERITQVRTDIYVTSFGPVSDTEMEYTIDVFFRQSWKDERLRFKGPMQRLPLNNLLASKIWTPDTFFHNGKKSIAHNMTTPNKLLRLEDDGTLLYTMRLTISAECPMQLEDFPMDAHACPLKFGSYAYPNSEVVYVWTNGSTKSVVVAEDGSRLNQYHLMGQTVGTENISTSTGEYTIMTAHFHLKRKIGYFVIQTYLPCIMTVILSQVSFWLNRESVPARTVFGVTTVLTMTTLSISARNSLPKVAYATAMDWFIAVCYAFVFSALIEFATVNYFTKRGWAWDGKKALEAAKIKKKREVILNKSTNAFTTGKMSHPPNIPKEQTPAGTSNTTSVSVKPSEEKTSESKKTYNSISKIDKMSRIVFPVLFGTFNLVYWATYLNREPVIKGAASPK
# Sequence (P28472 26-473 partner): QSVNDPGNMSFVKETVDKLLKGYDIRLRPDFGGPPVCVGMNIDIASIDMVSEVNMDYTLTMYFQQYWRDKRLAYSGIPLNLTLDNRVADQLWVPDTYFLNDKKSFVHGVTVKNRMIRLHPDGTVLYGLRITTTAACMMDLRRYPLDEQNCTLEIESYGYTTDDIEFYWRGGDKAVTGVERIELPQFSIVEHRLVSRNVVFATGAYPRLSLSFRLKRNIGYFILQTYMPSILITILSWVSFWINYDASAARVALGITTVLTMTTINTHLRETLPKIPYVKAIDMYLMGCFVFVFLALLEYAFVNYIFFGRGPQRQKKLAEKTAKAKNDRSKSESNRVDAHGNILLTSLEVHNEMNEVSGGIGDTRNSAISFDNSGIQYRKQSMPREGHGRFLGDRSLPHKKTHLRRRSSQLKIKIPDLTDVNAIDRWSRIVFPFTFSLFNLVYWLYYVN
# Sequence (P18507 other isoform, or with tags, fused parts or gaps): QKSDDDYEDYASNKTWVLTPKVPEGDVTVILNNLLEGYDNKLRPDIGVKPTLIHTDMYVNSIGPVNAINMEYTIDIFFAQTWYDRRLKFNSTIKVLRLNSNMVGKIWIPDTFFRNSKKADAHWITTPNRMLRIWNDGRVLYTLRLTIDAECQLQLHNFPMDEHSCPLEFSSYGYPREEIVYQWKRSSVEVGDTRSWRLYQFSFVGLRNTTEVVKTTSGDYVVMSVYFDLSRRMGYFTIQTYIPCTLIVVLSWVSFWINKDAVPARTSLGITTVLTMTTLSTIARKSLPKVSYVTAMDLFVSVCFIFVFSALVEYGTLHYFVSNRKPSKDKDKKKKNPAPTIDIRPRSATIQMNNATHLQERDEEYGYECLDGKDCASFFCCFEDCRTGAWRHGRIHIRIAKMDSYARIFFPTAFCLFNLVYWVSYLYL
# assay.overview: Whole-cell patch clamp electrophysiology, inverse regulation activity in α5β3γ2-HEK293 cells
# Type: cell-based
# test.settings: compound 100 nM; GABA 0.05-0.06 μM (about EC7-8); clamped at −60 mV; read-out: Inverse regulation efficiency to α5-GABAA receptor
metric.name: inhibition at 0.1 µM (%)

{"smiles.representation": "Cc1onc(-c2ccc(F)cc2)c1COc1ccc(-c2ncc3n2CCOC3)cn1", "value.reported": 42}
{"smiles.representation": "Cc1onc(-c2ccc(F)cc2)c1COc1cnc(-c2nnc3n2CCOCC3)cn1", "value.reported": 48}
{"smiles.representation": "Cc1onc(-c2ccc(F)cc2)c1COc1cnc(-c2nnn3c2COCC3)cn1", "value.reported": 24}
{"smiles.representation": "Cc1onc(-c2ccc(F)cc2)c1COc1cnc(N2CCN3CCNC(=O)[C@@H]3C2)cn1", "value.reported": 16}
{"smiles.representation": "Cc1onc(-c2ccc(F)cc2)c1COc1cnc(-c2cnn3c2COCC3)cn1", "value.reported": 36}
{"smiles.representation": "Cc1onc(-c2ccc(F)cc2)c1COc1ccc(-c2nnc3n2CCCOC3)nn1", "value.reported": 46}

P: Cc1onc(-c2ccc(F)cc2)c1COc1ccc(-c2nnc3n2CCCOC3)cn1
Q: Cc1onc(-c2ccc(F)cc2)c1COc1cnc(N2CCN3CCOC[C@@H]3C2)cn1
Task: Just curious, which one has the larger inhibition at 0.1 µM reading, P or Q ? Your answer should be the label of the entry you select.
Output: P
